# EXPERIMENTAL_TARGET: cloned human 5-HT1A receptors (Homo sapiens)
# Construct: expressed in transfected cells; host or cells: HeLa cells (HA7), stably transfected; cell homogenate
# Sequence (P08908 whole entry): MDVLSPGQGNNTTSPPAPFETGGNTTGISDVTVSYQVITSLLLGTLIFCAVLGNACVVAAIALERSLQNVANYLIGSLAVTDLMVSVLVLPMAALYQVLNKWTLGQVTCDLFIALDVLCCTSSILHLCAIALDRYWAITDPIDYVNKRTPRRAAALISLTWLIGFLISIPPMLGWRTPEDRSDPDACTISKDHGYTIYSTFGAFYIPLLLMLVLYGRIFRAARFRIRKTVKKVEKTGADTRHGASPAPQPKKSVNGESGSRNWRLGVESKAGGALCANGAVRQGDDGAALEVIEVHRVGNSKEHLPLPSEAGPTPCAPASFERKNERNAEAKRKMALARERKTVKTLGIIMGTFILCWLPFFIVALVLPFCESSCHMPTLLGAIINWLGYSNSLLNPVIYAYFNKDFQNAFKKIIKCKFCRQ
# ASSAY_NOTES: Inhibition of 3H-5-CT binding to human 5-HT1A receptors
# Procedure: Inhibition of ^3H-5CT Binding to Human 5-HT1A Receptors Human 5-HT1A receptors (40 μg of cell homogenate) were incubated for 15 minutes at 37° C. in 50 mM Tris buffer at pH 7.7 in the presence of ^3H-5-CT. Non-specific binding was determined by including 10 μM of metergoline. The reaction was terminated by rapid filtration through Unifilter GF/B filters on a Tomtec Cell Harvester. Filters were counted in a Packard Top Counter.
EXPERIMENTAL_READOUT: IC50 (nM)
Give the number; nM is assumed, so skip it.

COMPOUND	EXPERIMENTAL_READOUT	RECORDED_MEASUREMENT
CN(CCCC1(c2ccc(F)cc2)OCc2cc(C#N)ccc21)CCc1c[nH]c2c(F)cccc12 (centres unmarked) [Compound 12b]	IC50	43

The value of IC50 measured for the compound COc1ccc(OC)c(CCN(C)CCCC2(c3ccc(F)cc3)OCc3cc(C#N)ccc32)c1 (centres unmarked) [Compound 4e] turned out to be 17
